Tested on: phospho-p90 RSK (RSK1 Thr359/Ser363) in A375 (Braf V600E) cells
Assay: Phospho-p90 RSK ELISA using A375 (Braf V600E) cells
Type: cell-based
Conditions: Homo sapiens, A-375, 2 hours compound treatment, read-out: Cellular Phospho-p90RSK IC50
pIC50: −log10 of the molar value.
Recorded endpoint: pIC50

Data point: Cc1cc(-c2n[nH]c3cc4c(cc23)CN([C@H](C)c2ccc(C#N)cc2)C(=O)N4)ccn1 [Example 23] ; pIC50 = ≥ 6.60

Data point: O=C1Nc2cc3[nH]nc(-c4ccnnc4)c3cc2CN1[C@H](CO)c1cccc(Cl)c1 [Example 117] ; pIC50 = < 6.00

Data point: Cc1cc(-c2n[nH]c3cc4c(cc23)CN([C@@H]2CN(CC(F)F)C[C@H]2c2ccccc2)C(=O)N4)cc(C)n1 [Example 386] ; pIC50 = ≥ 6.60

Data point: Cc1cc(-c2n[nH]c3cc4c(cc23)CN([C@@H]2CN(CC(F)(F)F)C[C@H]2c2ccccc2)C(=O)N4)cc(C)n1 [Example 242] ; pIC50 = ≥ 6.60

Data point: Cc1cc(-c2n[nH]c3cc4c(cc23)CN([C@H](CO)c2cccc(Cl)c2)C(=O)N4)ccn1 [Example 26] ; pIC50 = ≥ 6.60

Data point: O=C1Nc2cc3[nH]nc(-c4ccc5nncn5c4)c3cc2CN1Cc1cccc(Cl)c1 [Example 59] ; pIC50 = < 6.00

Data point: COc1ncc(-c2n[nH]c3cc4[nH]c(=O)c(C(C)c5cccc(Cl)c5)cc4cc23)cn1 (stereo not shown) [Example 129] ; pIC50 = 6.00 to 6.60
